These entries and their values trace back to the nanobody polyreactivity screen of Harvey et al. (2022).

- test-description: yeast display, Sf9 membrane polyspecificity reagent, FACS + sequencing; frameworks hold sequencing errors
measured-property: polyreactivity (PSR sort gate)

Check out these entries, answers already filled in.
seq-string: QVQLVESGGGLVQAGGSLRLICAASGRIFCNYAMGWSRQAPGKERELVAAISSGGNTYYADSVKGRFTISRDNAKNTVYLQMNSLKPEDSAVYYCNEVYVGWQYGYDYWGQGTQVTVSS
measured-property: polyreactivity (PSR sort gate)
measurement: low polyreactivity

seq-string: QVQLVESGGGLVQAGGSLRLSCAASGSIFEYYAMGWYRQAPGKERELVAAISTGGSTYYADSVKGRFTISRDNAKNTVYLQMNSLKPEDTAVYYCAAEDYHPGADTVGTGYDYWGQGTQVTVSS
measured-property: polyreactivity (PSR sort gate)
measurement: low polyreactivity

seq-string: QDQLVESGGGLVQAGGSLRLSCAASGRTFRRYALGWYRQAPGKETELVAVISGGGTYYADSVKGRFTISRDNAKNTVYLQMNSLKPEDTAVYYCAARYRQTRSPSYDYWGQGTQVTVSS
measured-property: polyreactivity (PSR sort gate)
measurement: high polyreactivity

seq-string: QVQLVESGGGLVQAGGSLRLSCAASGFIFTKYSMGWYRQAPGKERELVAAIRGSGGSTYYADSVKGRFTISRDIAKNSVYLQMNSLKPEDTAVYYCAAERSLGYDYWGQGTQVTVSS
measured-property: polyreactivity (PSR sort gate)
measurement: high polyreactivity

Consider now this further sequence.
Which polyreactivity (PSR sort gate) is listed for `QVQLVESGGGLVQAGGSLRLSCADSGSIFVWNDMGWYRQAPGKEREFVAAITSRDGSTYYADSVKGRFTISRDTAKNTVYLQMTSLKPEDTAVYYCAARLRVTGFYSRTRYYWGQGTQVTVAS` ?
low polyreactivity

----------
- test-description: yeast display, Sf9 membrane polyspecificity reagent, FACS + sequencing; frameworks hold sequencing errors
measured-property: polyreactivity (PSR sort gate)

seq-string: QVQLVESGGGLVQAGGSLRLSCAACGLTITFYAMGWYRQAPGKERELVAAISRSGGSTYYADSVKGRFTISRDNAKNTVYLQMNSLKPEVTAVYYCAVVGGYYEFDYEGDYWGQGTQVTVSS
polyreactivity (PSR sort gate): low polyreactivity
--
seq-string: QVHVVESGGGLVQAGGSLGLSCAASGITFTAYAMGWYRQAPGKERELVATINSTGITNYADSVKGRFTISRDNSKNTVFLQMNSLKPEDTAVYYCAADLLDISSYDGMDYWGQGTQVTVSS
polyreactivity (PSR sort gate): low polyreactivity
--
seq-string: QVQLVESGGGLVQAGGSLRLSCAASGSTFVANTMGWYRQAPATERELVASITSGDSTNYADSVKGRFTISRDNAKNTVYFQMKSLKPEDTAVYYCAAETVWYYVGGQLIYYYWGQGTQVTVSS
polyreactivity (PSR sort gate): low polyreactivity
--
seq-string: QVQLVESGGGLVQAGGSLRLSCAASGITFAGYAMGWYRQAPGKERELVAAISRGGSTYYADSVKGRFTISRDNAKNTVYLQMNSLKPEDTAVYYCNTDDQQGYFTYTGWNYNYWGQGTQVTVSS
polyreactivity (PSR sort gate): high polyreactivity

Consider now this further sequence.
Which polyreactivity (PSR sort gate) is listed for `QVQLVESGGGLVQAGGSLRLSCAASGRTFPGNAMGWYRQAPGKERELVAAISYSGGRTYYSDSVKGRFTISRDNAKNTVYLQMNRLKPEDTAVYYCAKSIVQPSVAAYYYWGQGTQVTVSS` ?
high polyreactivity
